Origin of values: the supplement of paper PMC9170038

Tested on: K4 kissing-loop RNA reporter
Assay: apparent KD of K4 kissing-loop reporter; higher = weaker reporter binding
Settings: Eterna round: R107; input ligand: FMN 200 uM
# binarize apparent KD of K4 kissing-loop reporter: threshold 100 nM inclusive, high side met, low side not met

MACROMOLECULE_SEQUENCE: GGAUCCACCAGUGAUGUUGGAGAAAACUCUAAGGAUAUGACGAAAGUCAGAAGGUGGUAGACUGGGCAAAGUCCGGUCGGAUCCA [FmnA10 U30+G66]
LABEL: met
--
MACROMOLECULE_SEQUENCE: CGACUAUUUCGAUAGUCGAUAGACACGGAAGGAGCGGGAUUCGUCCCAGGUAGGUCGCCGUGAAGUUGAGUGAUGUUCAACGUGU [Arg A SS t13]
LABEL: met
--
MACROMOLECULE_SEQUENCE: AGAAGAUAUCAAGAUACCAGCUCCCGGCCCAAAACCCAGAUACACGAGUGAUGUUCGUUCAGCCCUUGGCAGCUUGCCUAGUUCU [theeternabot_sameState_KL_Theo_B_6]
LABEL: not met
--
MACROMOLECULE_SEQUENCE: AUACGUUUUUGUGAUACCAGACAUGUGAGUGAUGUUUACAUAUAUAUUUAAUAUUUAGCUGUCCCUUGGCAGCACUGUUUAUUUA [JR_ExcTheophyB_Sub004]
LABEL: met
--
MACROMOLECULE_SEQUENCE: UGGGAUGGGCGAGGAUAUGGUGAUGUUUGGGUUGUUAGUGAUGUUGGUGAUGCUGGUGGUGUUUGUCCAGAAGGCGCGGUUUUUU [Bdazzled 3]
LABEL: met
--
MACROMOLECULE_SEQUENCE: AUAUUUAUUUAGUCACUUUUCAUAUUAUGUCAGGAUAUCGUAUUUUCGAGAAGGGACUCAUGCUAGUGAUGUUAGCUAUUUCUCA [JR_Nu3_ExcFMNA_Sub022]
LABEL: met
--
MACROMOLECULE_SEQUENCE: ACCUGUAGCAGAAGGAGCGACAGUUAUUCUGAUAGAACUCUGAGUGAUGUUCAGAACAACUGUCAGGUAGGUCGCUGAUACAGGU [Arg B Ex t8a]
LABEL: met
--
MACROMOLECULE_SEQUENCE: AACUGGGUUCGUGAUACCAGCUCACACAUGAGUGAUGUUCAUGUAGUGGGCAAAAUGUGGAGCCCUUGGCAGCACUGUGACCACG [XTheo-B2]
LABEL: not met

* * *

Reported apparent KD of K4 kissing-loop reporter values for a set of sequences
Test system: K4 kissing-loop RNA reporter;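 note: bound reporter read as fluorescence of individual clusters on recovered sequencing chips by microscopy, with normalized cluster intensities fitted with a binding model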
Assay: apparent KD of K4 kissing-loop reporter; higher = weaker reporter binding
Conditions: Eterna round: R107; input ligand: arginine 13.2 mM

MACROMOLECULE_SEQUENCE: AACUGUCAAGGACAACAUUACUGAGGUGAUACCAGCAUCGAAAGAUGCCCUUGGCAGCACUGACUUGCAGUGAUGUUGCAAGUAA [BrourdMod 8 - Jieux - Exclusion - Theophylline A]
apparent KD of K4 kissing-loop reporter: 162 nM
--
MACROMOLECULE_SEQUENCE: CAACUACCCGGAAGGAGCGCGGGUGUAAAUCAAAGGGCUUGAGUGAUGUUCAAGCGGAACCCGCAGGUAGGUCGCCGGGAAGCCC [Quaneson]
apparent KD of K4 kissing-loop reporter: 114 nM
--
MACROMOLECULE_SEQUENCE: UAUCAGAUUACUGAUACCAGUCUAAAGACAGUGAUGUUGUCUGAUCGACCACGAUCAAAGGACCCUUGGCAGCAGUAUACUAUUC [Theo B SS t5]
apparent KD of K4 kissing-loop reporter: 157 nM
--
MACROMOLECULE_SEQUENCE: UCCUGCAAUCGACCACGAAAGUGGAUUGAUACCAGAGUCGAAAGACUCCCUUGGCAGCGAGUGAUGUUCGAAGCAGGUAAAUAAA
apparent KD of K4 kissing-loop reporter: 455 nM
--
MACROMOLECULE_SEQUENCE: UGCAUGUGAAACAUGUAGGUGCUAGGUGAAGGAGCGAUCGAAAGAUCAGGUAGGUCGCACCUUCCUGAGUGAUGUUCAGGUAAUA [KL-SSArg-A2]
apparent KD of K4 kissing-loop reporter: 31.7 nM
--
MACROMOLECULE_SEQUENCE: CGACUAUUUCGAUAGUCGAUAGACACGGAAGGAGCGGGAUUCGUCCCAGGUAGGUCGCCGUGAAGUUGAGUGAUGUUCAACGUGU [Arg A SS t13]
apparent KD of K4 kissing-loop reporter: 155 nM
--
MACROMOLECULE_SEQUENCE: GCAAAACAAACGUAGAGUGGAACACAGAGACGAGGACCGGUACGGCCGCCACUCGACGAGGUUUUCAGUGAUGUUGAAAAUUUAG [Exclusion Tryptophan A GF2]
apparent KD of K4 kissing-loop reporter: 162 nM
--
MACROMOLECULE_SEQUENCE: UGACUUGCCUGAGGAUAUCUAGGAUAUCCAUAAAAGAAAAUAAUAAUCCAGUGAUGUUGGAGAAGGAGAGAAGGCAGGUAAGUCU [KL-XFMN-B17 #DoubleAptamer #SwitchBubble]
apparent KD of K4 kissing-loop reporter: 114 nM
--
MACROMOLECULE_SEQUENCE: CUUUGAACAUGAGUGAUGUUCAUGUCCGAAGGAGCGUGCGAAAGCACAGGUAGGUCGCGGACGUGAGUGAUGUUCAUGUGAGCGA [KL-XArg-A11 #analogue]
apparent KD of K4 kissing-loop reporter: 134 nM
--
MACROMOLECULE_SEQUENCE: AUUUUUAACUGAGGAUAUCGAAUUUAUGUAGUGAUGUUACUUUAAAUUAAAAUUUUAAUUUCUUAACGAGAAGGCAGAAUAAUUA [JR_SSFMNB_Sub025]
apparent KD of K4 kissing-loop reporter: 194 nM
--
MACROMOLECULE_SEQUENCE: AAGGUAAGUGCAUACAAAGUGAUGUUUUGUCGAGGACCGGUACGGCCGCCACUCGCCCAGUUAAGUGACCGACGUCAACGAAUAA [theeternabot_exclusion_KL_Trp_A_21]
apparent KD of K4 kissing-loop reporter: 552 nM
